Experiment: MTT cell viability assay, normal RAW 264.7 cells
Type: cell-based
Details: mouse, RAW 264.7 cells (non-cancerous mouse macrophage cells), after 24 and 48 h
Listed next: entries and their corresponding viability.

A selection of reference data follows.
CCCCCCCCCCCCCCCCCCOC(=O)C[C@H](NC(=O)[C@@H](N)Cc1c[nH]cn1)C(=O)OCCCCCCCCCCCCCCCCCC : > 80%
CCCCCCCCCCCCCCCCOC(=O)C[C@H](NC(=O)[C@@H](N)Cc1c[nH]cn1)C(=O)OCCCCCCCCCCCCCCCC : > 80%

Let's switch to this compound now.
Reported viability, compound CCCCCCCCCCCCCCCCOC(=O)CC[C@H](NC(=O)[C@@H](N)Cc1c[nH]cn1)C(=O)OCCCCCCCCCCCCCCCC : ____
> 80%
